# Tested on: SK-MEL-2 melanoma
# experimental_details: NCI tumour cell line growth inhibition, 48 h
measurement_type: TGI

Inquiry: TGI lookup needed for O=c1cc(-c2ccccc2)oc2c1ccc1[nH]c3ccccc3c(=O)c12 , thanks.
Reply text: > 100 µM

Inquiry: Repeat for the following compound: Cc1cc(C)c2c(c1)C/C(=C\c1cccc(C)c1C(=O)O)C2=O
Reply text: > 100 µM

Inquiry: Next record, please: O=C(O)Cn1c2c(c3c1-c1ccccc1C3=O)C(=O)CCC2
Reply text: > 100 µM

----------
# Test system: SK-OV-3 ovarian
# experimental_details: NCI tumour cell line growth inhibition, 48 h
measurement_type: GI50

Solved entries:
Cc1cc(=O)[nH]c(N/N=C/c2ccccc2O)n1 :: 6.88 µM
COC1=C(OC)C(=O)C(C/C=C(\C)CC/C=C(\C)CC/C=C(\C)CC/C=C(\C)CC/C=C(\C)CC/C=C(\C)CC/C=C(\C)CC/C=C(\C)CC/C=C(\C)CCC=C(C)C)=C(C)C1=O :: > 100 µM
Nc1c(C(=O)c2cccc(C(O)CO)c2)cnn1-c1ccc(F)cc1 (stereo unspecified) :: > 25 µM
COc1cc(/C=C/C(=O)CC(=O)/C=C/c2cc(OC)c(O)c(OC)c2)cc(OC)c1O :: 32 µM
Fc1ccc2c(c1)C1=C(CCC2)C(c2ccc(Cl)cc2)NC(=S)N1 (stereo unspecified) :: > 100 µM
CCC[CH2][Sn]([CH2]CCC)([CH2]CCC)/[C](=C/[Si](C)(C)c1ccccc1)c1ccc2c(c1)OCO2 :: 18.5 µM
CC(C)(C)c1ccc(C2CC(=O)C3=C(C2)Nc2ccccc2N(C(=O)c2ccccc2Cl)C3c2ccc(F)cc2)cc1 (stereo unspecified) :: > 100 µM
Cc1c(Nc2nccc3cc(CN4CC[C@@H](O)C4)cnc23)cccc1-c1cccc(-c2nc3cc(CN4CC[C@@H](C(=O)O)C4)cc(C#N)c3o2)c1C :: > 100 µM

Inquiry: Could you share which GI50 value was measured for O=C1CS/C(=N/S(=O)(=O)c2ccc(N3N=C4c5ccccc5CC4C3c3cccs3)cc2)N1C(=O)c1ccccc1 (stereo unspecified) ?
Reply text: > 100 µM

Inquiry: Same read-out for COc1cc2nc(N3CCC[C@H](NC4=CC(=O)c5ccccc5C4=O)C3)nc(N)c2cc1OC ?
Reply text: 2.22 µM

Inquiry: Now give it for CC(C)[P+](c1ccccc1)(c1ccccc1)c1ccccc1 too.
Reply text: 22.4 µM

Inquiry: Again, but for COc1cc(S(=O)(=O)Nc2nc(-c3ccc(N4C(=O)C(C)SC4c4ccccc4O)cc3)cs2)ccc1Cl (stereo unspecified)
Reply text: 50.6 µM

Inquiry: What about COc1cc(F)c(F)cc1C(=O)c1cnc(NC2CCN(S(C)(=O)=O)CC2)nc1N ?
Reply text: 10 µM

----------
Recorded TGI values for a group of molecules are listed next.
# System: KM12 colon
# experimental_details: NCI tumour cell line growth inhibition, 48 h

Solved entries:
COc1cc(F)c(F)cc1C(=O)c1cnc(NC2CCN(S(C)(=O)=O)CC2)nc1N :: > 22.4 µM
Nc1nc(Cl)nc2c1ncn2C1OC(CO)C(O)C1F (configuration not stated) :: > 100 µM
CCCC1=C(OC)C(=O)c2c(C)cc(Cl)nc2C1=O :: 18.1 µM
NC(N)=NC(N)=Nc1ccc(C(=O)O)cc1 :: > 100 µM
CC(=O)OCC1OC(SC2=NC(=O)CS2)C(OC(C)=O)C(OC(C)=O)C1OC(C)=O (configuration not stated) :: > 100 µM

Inquiry: If you can, please state the reported TGI value of CC12OC(C(=O)C13CC3)C1C(=O)c3c(O)ccc(O)c3C(=O)C12 (configuration not stated) .
Reply text: 90.1 µM

Inquiry: Moving on to the next molecule: CCOC(=O)CCc1cn2cc(Br)nc(OC)c2n1
Reply text: > 100 µM

Inquiry: What would you report for O=C1NC(=O)C(c2cccc(Cl)c2)=C1Nc1ccc(Cl)c(C(=O)O)c1 ?
Reply text: > 25 µM

Inquiry: Query Cc1cc(C)c2c(c1)C/C(=C\c1cccc(C)c1C(=O)O)C2=O next
Reply text: > 100 µM

Inquiry: Let us now turn to CCCCCCCC(=O)[O-].CCCCCCCC(=O)[O-].N.N.N.N.[Co+3].[O-][Cl+3]([O-])([O-])[O-]
Reply text: > 100 µM

The reported numbers originate from PubChem BioAssay (NCI).
